- System: Zymoseptoria tritici (SEPTTR-184)
- testDescription: Cyp51 dsRNA tile (fragment) foliar application bioassay (Example 6)
- Assay type: in vivo
- condition: 1 day protectant; rate 12.5 ppm; average of 2 trials

[
  {
    "molecule": "MgCyp51-T13: dsRNA tile of Zymoseptoria tritici Cyp51, 119 bp, location 1517-1635 (nucleic acid, listed as Zymoseptoria tritici, long dsRNA tile, purified, chemistry not given here) ACAATGTGGATGGCAGCGACAACGTGGTGGGTACGGATTACAGCAGTTTGTTCAGCCGGCCGCTGTCGCCGGCAGTAGTAAAGTGGGAGAGGAGGGAGGAGAAGGAGGAGAAGAACTGA",
    "Disease Control (%) SEPTTR-184 1DP": "59%"
  },
  {
    "molecule": "MgCyp51-T9: dsRNA tile of Zymoseptoria tritici Cyp51, 172 bp, location 1-172 (nucleic acid, listed as Zymoseptoria tritici, double-stranded RNA) ATGGGTCTCCTCCAGGAAGTCCTCGCGCAGTTCGACGCGCAATTCGGCCAGACCAGCCTCTGGAAACTTGTCGGACTTGGATTCCTCGCCTTCAGCACGCTCGCCATCCTCCTCAATGTCCTCTCACAACTTCTCTTCCGTGGCAAGTTGTCCGATCCGCCACTCGTATTCC",
    "Disease Control (%) SEPTTR-184 1DP": "53%"
  },
  {
    "molecule": "MgCyp51-T2: dsRNA tile of Zymoseptoria tritici Cyp51, 165 bp, location 48-212 (nucleic acid, listed as Zymoseptoria tritici) CCAGACCAGCCTCTGGAAACTTGTCGGACTTGGATTCCTCGCCTTCAGCACGCTCGCCATCCTCCTCAATGTCCTCTCACAACTTCTCTTCCGTGGCAAGTTGTCCGATCCGCCACTCGTATTCCACTGGGTGCCCTTCATCGGAAGCACCATCACATACGGCAT",
    "Disease Control (%) SEPTTR-184 1DP": "67%"
  },
  {
    "molecule": "MgCyp51-T1: dsRNA tile of Zymoseptoria tritici Cyp51, 232 bp, location 166-397 (nucleic acid, listed as Zymoseptoria tritici) GTATTCCACTGGGTGCCCTTCATCGGAAGCACCATCACATACGGCATCGACCCATACAAGTTCTTCTTCTCCTGTCGGGAAAAGTATGGAGATGTCTTTACATTCATCCTGCTGGGAAAGAAGACGACGGTGTGCTTGGGCACCAAGGGCAATGATTTTATTTTGAATGGAAAACTGAAGGACGTCAACGCGGAGGAGATATACAGCCCGCTGACCACTCCTGTCTTTGGCA",
    "Disease Control (%) SEPTTR-184 1DP": "68%"
  },
  {
    "molecule": "MgCyp51-T4: dsRNA tile of Zymoseptoria tritici Cyp51, 178 bp, location 647-824 (nucleic acid, listed as Zymoseptoria tritici) AGGGCTTCGACTCGTCTTTCGCGGACCTCTACCACTACCTCGATATGGGATTCACACCGATCAACTTTATGCTTCCGTGGGCGCCCCTTCCCCAGAACCGACGCCGCGATTATGCGCAGAAGAAGATGTCCGAGACATACATGTCGATCATTCAGAAGAGACGAGAGTCCAAAACGGG",
    "Disease Control (%) SEPTTR-184 1DP": "65%"
  }
]
